Entry source: PubChem BioAssay

tested on: TRPC4 beta (transient receptor potential cation channel C4), mouse; assay: TRPC4 cation channel opening, retest – cell-based, Fluo4 calcium, HEK293 TRPC4beta/mu-opioid, duplicates, 10 µM, confirmation (AID 2426); conditions: Fluo4 calcium fluorescence, at 10 µM
The source made the active and inactive calls.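 The calls were made as follows: active = fluorescence ratio normalized to control raised more than 50% in primary screen plus both repeat runs; inactive = the rest.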
Pick from TRUE (active), FALSE (inactive) when you respond.

As a guide, the following entries are already answered.
CCOc1cc(CNC2CCCC2)cc(Cl)c1OCc1ccccc1 | FALSE
CN(C)c1ccc(C(=S)N2CCN(c3ccc([N+](=O)[O-])cc3)CC2)cc1 | FALSE
Cc1ccc(Cl)cc1N1CCN(Cc2nc3ccsc3c(=O)[nH]2)CC1 | FALSE
Cc1cccc(OCCOCCN2CCNCC2)c1C | TRUE
Cc1nn(C(=O)c2cccc([N+](=O)[O-])c2)c(C)c1Sc1ccccc1 | FALSE
O=C(Nc1ccc(Oc2ccccc2)nc1)C1CCN(Cc2ccccc2)CC1 | FALSE

Prompt: In this assay, the call recorded for `Cn1c(=O)c2c(nc(CN3CCc4ccccc4C3)n2Cc2ccccc2F)n(C)c1=O` was what?
Response: TRUE

Prompt: # outcome recorded in this test, key = CC(=O)c1ccc(S(=O)(=O)NCc2ccc(C(=O)NCC(c3ccccc3)N(C)C)cc2)cc1 (stereo unspecified)
Response: TRUE

Prompt: Write down the call the test reported for this compound. Item: O=C(Nc1ncc(Br)s1)C(Cc1ccccc1)n1cccc1 (stereo unspecified)
Response: FALSE

Prompt: Query: recorded result category for OC(CNCC1CCCO1)Cn1c2ccc(Br)cc2c2cc(Br)ccc21 (stereo unspecified) in this test
Response: FALSE

Prompt: I would be grateful if you could indicate the recorded call for `Cc1ccc(-c2cc(C(=O)NCCCN3CCCC3)c3ccccc3n2)cc1C` .
Response: FALSE

* * *

test: serotonin-gated TRPC4 signal block – cell-based, second counter screen, HEK293 TRPC4/5HT1a, Fluo-4, counter-screen for TRPC4 inhibitor project, confirmation (AID 434978); conditions: Fluo-4 calcium flux, at 10 µM, serotonin added to trigger calcium flux;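 as to outcome: serotonin given first at submaximal then at maximal dose after compound preincubation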
Activity calls are given as the source filed them.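 How the source made its calls: active means primary screen active whose calcium signal fell more than 3 SD beyond the full-serotonin control mean in both duplicate plates; inactive means the rest.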
Could you please pick one outcome from this set? active, inactive

Example cases with answers are listed next.
Cn1c(=O)c2c(nc(CN3CCc4ccccc4C3)n2Cc2ccc(F)cc2)n(C)c1=O | inactive
O=C1CC2(CCN(S(=O)(=O)c3ccccc3)CC2)Oc2ccccc21 | inactive

Prompt: Assay result, entry `CC1=NN(c2ccccc2)C(=O)/C1=C/c1c(O)n(-c2ccc(F)c(Cl)c2)[nH]c1=O` — outcome?
Response: active

Prompt: Recorded test outcome, item `NC(=S)N/N=C1/CCSc2ccc3ccccc3c21`
Response: inactive

Prompt: Could you check what this test reported for CN(CCc1ccccn1)C1CC(=O)N(c2ccc(Cl)cc2)C1=O (stereo not given) ?
Response: inactive

Prompt: Hello, I am checking results. What call was entered for `CCC(=O)N1CCc2cc(Br)cc(S(=O)(=O)NCCCN(C)Cc3ccccc3)c21` ?
Response: inactive

Prompt: Could you kindly confirm the outcome this assay logged for `CCCn1c(=O)c2ccccc2n2c(SCCOc3ccc(C)cc3)nnc12` ?
Response: active

Prompt: Identify the outcome logged in this assay for the compound shown: `CN(Cc1cnn(C)c1)C(=O)c1ccc(OC2CCN(CCc3ccccc3)CC2)cc1`
Response: inactive

Prompt: What classification did COc1ccccc1N1CCN(C(c2cccs2)C(C)NC(=O)c2ccco2)CC1 (stereo not given) end up with in this test?
Response: inactive

Prompt: Entry `CC[n+]1c(/C=C/Nc2ccccc2)oc2ccc(OC)cc21` : call = ?
Response: active
